Test system: GRK4;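 further: KINOMEscan kinase panel screen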
Settings: concentration: 1 μM, replicates: in singlicate; n = 1
Each entry below lists one item and its recorded %Inh value.

{"columns": ["Compound", "%Inh"],
 "data": [
  ["c1ccc(Oc2ccc(Nc3ccnc4cc(-c5ccc(CNCCN6CCOCC6)o5)ccc34)cc2)nc1", "0%"],
  ["COc1ccc(Nc2nccc(NCCNC(=O)c3cc4ccccc4s3)n2)cc1", "0%"],
  ["CCc1ccc(-c2ccc3c(c2)-c2c(cnn2C)S(=O)(=O)N3C)cc1", "16%"],
  ["CC(=O)N1CCN(c2ccc(Nc3nccc(-c4sc(C(C)C)nc4-c4cccc(NS(=O)(=O)c5cccc(Cl)c5)c4)n3)cn2)CC1", "30%"],
  ["CC(C)(C)c1ccc2nccc(Nc3cccc(O)c3)c2c1", "16%"],
  ["CC(C)c1nc(-c2cccc(NS(=O)(=O)c3c(F)cccc3F)c2F)c(-c2ccnc(Nc3ccc(N4CCOCC4)nc3)n2)s1", "0%"],
  ["CN1CCN(Cc2cccc(-c3ccc4c(Nc5ccc(Oc6ccccc6)cc5)ccnc4c3)c2)CC1", "0%"],
  ["COc1cccc(NC(=O)NC2CCN(c3ccnc(Nc4cc(OC)c(OC)c(OC)c4)n3)C2)c1 (centres unmarked)", "0%"]
]}
